Data origin: patent US10702592B2

molecular target: HLA-A*02:01 (Homo sapiens, UniProt P04439, D140Y/D185E/D98H/E176V/E277Q/G131W/G231S/I119V/I121R/I166T/I218V/L300P/L318F/N151K/N90K/P208A/P217A/Q86G/Q94H/R138H/R169H/T345S); experiment: MHC binding assay (UV-ligand exchange, beta2m ELISA); details: binding to HLA-A*02:01, UV-ligand exchange
measuredProperty: Peptide exchange (MHC class I binding score, peptide exchange yield)

> print(dat)
                                  substance         observedvalue
1  47 (GLLPKLTAL; listed as Homo sapiens) [compound 47]     “+++” (≥50 = +++)
2  26 (FLGSFIDHV; listed as Homo sapiens) [compound 26]     “+++” (≥50 = +++)
3  87 (GLFARIIMI; listed as Homo sapiens) [compound 87]      “++” (≥20% = ++)
4  114 (GLSDISPST; listed as Homo sapiens) [compound 114]      “++” (≥20% = ++)
5  23 (ALVEDIINL; listed as Homo sapiens) [compound 23]  “++++” (≥75% = ++++)
6  89 (GLTALHVAV; listed as Homo sapiens) [compound 89]     “+++” (≥50 = +++)
7  128 (KLFDASPTFFA; listed as Homo sapiens) [compound 128]     “+++” (≥50 = +++)
8  19 (VLEAILPLV; listed as Homo sapiens) [compound 19]  “++++” (≥75% = ++++)
9  10 (FLLVGTQIDL; listed as Homo sapiens) [compound 10]     “+++” (≥50 = +++)

---

molecular target: HLA-A*02:01 (Homo sapiens, UniProt P04439, D140Y/D185E/D98H/E176V/E277Q/G131W/G231S/I119V/I121R/I166T/I218V/L300P/L318F/N151K/N90K/P208A/P217A/Q86G/Q94H/R138H/R169H/T345S); assay: MHC binding assay (UV-ligand exchange, beta2m ELISA); conditions: binding to HLA-A*02:01, UV-ligand exchange
measuredProperty: Peptide exchange (MHC class I binding score, peptide exchange yield)

> print(dat)
                                  substance         observedvalue
1  254 (FLYSETWNI; listed as Homo sapiens) [compound 254]  “++++” (≥75% = ++++)
2  304 (ALIRLDDLFL; listed as Homo sapiens) [compound 304]     “+++” (≥50 = +++)
3  184 (AVLGTSWQL; listed as Homo sapiens) [compound 184]     “+++” (≥50 = +++)
4  74 (SLDLRPLEV; listed as Homo sapiens) [compound 74]  “++++” (≥75% = ++++)
5  76 (ALADLVPVDVVV; listed as Homo sapiens) [compound 76]  “++++” (≥75% = ++++)

---

molecular target: HLA-A*02:01 (Homo sapiens, UniProt P04439, D140Y/D185E/D98H/E176V/E277Q/G131W/G231S/I119V/I121R/I166T/I218V/L300P/L318F/N151K/N90K/P208A/P217A/Q86G/Q94H/R138H/R169H/T345S); test: MHC binding assay (UV-ligand exchange, beta2m ELISA); conditions: binding to HLA-A*02:01, UV-ligand exchange
measuredProperty: Peptide exchange (MHC class I binding score, peptide exchange yield)

> print(dat)
                                   substance         observedvalue
 1  46 (FLVEEIFQT; listed as Homo sapiens) [compound 46]     “+++” (≥50 = +++)
 2  278 (FLLFINHRL; listed as Homo sapiens) [compound 278]     “+++” (≥50 = +++)
 3  11 (GLDTVVALL; listed as Homo sapiens) [compound 11]     “+++” (≥50 = +++)
 4  48 (KILDEDLYI; listed as Homo sapiens) [compound 48]     “+++” (≥50 = +++)
 5  73 (YLGEEYPEV; listed as Homo sapiens) [compound 73]     “+++” (≥50 = +++)
 6  290 (IASPVIAAV; listed as Homo sapiens) [compound 290]     “+++” (≥50 = +++)
 7  55 (ILVEVDLVQA; listed as Homo sapiens) [compound 55]  “++++” (≥75% = ++++)
 8  24 (AVLGFSFRL; listed as Homo sapiens) [compound 24]     “+++” (≥50 = +++)
 9  91 (HLSSTTAQV; listed as Homo sapiens) [compound 91]      “++” (≥20% = ++)
10  169 (SSLEENLLHQV; listed as Homo sapiens) [compound 169]     “+++” (≥50 = +++)
11  59 (RLHREVAQV; listed as Homo sapiens) [compound 59]     “+++” (≥50 = +++)
12  50 (LLLDGLIYL; listed as Homo sapiens) [compound 50]     “+++” (≥50 = +++)
13  268 (VLFPLPTPL; listed as Homo sapiens) [compound 268]  “++++” (≥75% = ++++)
14  212 (FLIGQGAHV; listed as Homo sapiens) [compound 212]     “+++” (≥50 = +++)
15  248 (NLLEQFILL; listed as Homo sapiens) [compound 248]     “+++” (≥50 = +++)
16  275 (KLMDLEDCAL; listed as Homo sapiens) [compound 275]  “++++” (≥75% = ++++)
17  66 (KLAPIPVEL; listed as Homo sapiens) [compound 66]  “++++” (≥75% = ++++)
18  206 (SAVSGQWEV; listed as Homo sapiens) [compound 206]      “++” (≥20% = ++)
19  178 (YVLQGEFFL; listed as Homo sapiens) [compound 178]     “+++” (≥50 = +++)
20  43 (ALLEGVKNV; listed as Homo sapiens) [compound 43]     “+++” (≥50 = +++)

---

target: HLA-A*02:01 (Homo sapiens, UniProt P04439, D140Y/D185E/D98H/E176V/E277Q/G131W/G231S/I119V/I121R/I166T/I218V/L300P/L318F/N151K/N90K/P208A/P217A/Q86G/Q94H/R138H/R169H/T345S); assay: MHC binding assay (UV-ligand exchange, beta2m ELISA); conditions: binding to HLA-A*02:01, UV-ligand exchange
measuredProperty: Peptide exchange (MHC class I binding score, peptide exchange yield)

> print(dat)
                                   substance         observedvalue
 1  299 (RLLEEEGVSL; listed as Homo sapiens) [compound 299]     “+++” (≥50 = +++)
 2  231 (IVMGAIPSV; listed as Homo sapiens) [compound 231]     “+++” (≥50 = +++)
 3  245 (KLIQLPVVYV; listed as Homo sapiens) [compound 245]     “+++” (≥50 = +++)
 4  264 (ILTGTPPGV; listed as Homo sapiens) [compound 264]     “+++” (≥50 = +++)
 5  86 (GLATIRAYL; listed as Homo sapiens) [compound 86]     “+++” (≥50 = +++)
 6  177 (YLYEAEEATTL; listed as Homo sapiens) [compound 177]     “+++” (≥50 = +++)
 7  168 (SLLSPLLSV; listed as Homo sapiens) [compound 168]     “+++” (≥50 = +++)
 8  256 (ALQETPPQV; listed as Homo sapiens) [compound 256]     “+++” (≥50 = +++)
 9  152 (KIMYTLVSV; listed as Homo sapiens) [compound 152]      “++” (≥20% = ++)
10  191 (GLSDISAQV; listed as Homo sapiens) [compound 191]     “+++” (≥50 = +++)
11  52 (VLLEDVDAAFL; listed as Homo sapiens) [compound 52]  “++++” (≥75% = ++++)
12  92 (KLLFEIASA; listed as Homo sapiens) [compound 92]     “+++” (≥50 = +++)
13  238 (YQYGAVVTL; listed as Homo sapiens) [compound 238]     “+++” (≥50 = +++)
14  243 (GLPDLDIYL; listed as Homo sapiens) [compound 243]  “++++” (≥75% = ++++)
15  293 (GLAMVEAISYV; listed as Homo sapiens) [compound 293]  “++++” (≥75% = ++++)
16  94 (LLAGQATTAYF; listed as Homo sapiens) [compound 94]     “+++” (≥50 = +++)
17  207 (GLVGLLEQA; listed as Homo sapiens) [compound 207]  “++++” (≥75% = ++++)
18  77 (ALLDVSNNYGI; listed as Homo sapiens) [compound 77]  “++++” (≥75% = ++++)
19  147 (GLSEYQRNFL; listed as Homo sapiens) [compound 147]     “+++” (≥50 = +++)
20  109 (YLFQFSAAL; listed as Homo sapiens) [compound 109]     “+++” (≥50 = +++)
21  279 (NLAGENILNPL; listed as Homo sapiens) [compound 279]     “+++” (≥50 = +++)
22  213 (YINEDEYEV; listed as Homo sapiens) [compound 213]      “++” (≥20% = ++)
23  33 (LLANIVPIAMLV; listed as Homo sapiens) [compound 33]  “++++” (≥75% = ++++)
24  192 (GMAAEVPKV; listed as Homo sapiens) [compound 192]      “++” (≥20% = ++)
25  302 (SLAELDEKISA; listed as Homo sapiens) [compound 302]     “+++” (≥50 = +++)
26  65 (NLTDVSPDL; listed as Homo sapiens) [compound 65]     “+++” (≥50 = +++)
27  150 (ILSEKEYKL; listed as Homo sapiens) [compound 150]     “+++” (≥50 = +++)
28  32 (VLNEDELPSV; listed as Homo sapiens) [compound 32]     “+++” (≥50 = +++)
29  314 (LIDDKGTIKL; listed as Homo sapiens) [compound 314]      “++” (≥20% = ++)
30  58 (QLAPFLPQL; listed as Homo sapiens) [compound 58]     “+++” (≥50 = +++)
31  136 (FIFGIVHLL; listed as Homo sapiens) [compound 136]     “+++” (≥50 = +++)
32  260 (RLDEAFDFV; listed as Homo sapiens) [compound 260]  “++++” (≥75% = ++++)
33  110 (YQYPFVLGL; listed as Homo sapiens) [compound 110]  “++++” (≥75% = ++++)
34  148 (ICAGHVPGV; listed as Homo sapiens) [compound 148]     “+++” (≥50 = +++)
35  188 (GLEDEMYEV; listed as Homo sapiens) [compound 188]      “++” (≥20% = ++)
36  67 (LLATVNVAL; listed as Homo sapiens) [compound 67]  “++++” (≥75% = ++++)
37  193 (SLADSMPSL; listed as Homo sapiens) [compound 193]      “++” (≥20% = ++)
